Target: T1, RABV nucleoprotein lacking its N-terminal arm (N[change], residues 24-450) (rabies virus (strain CVS-11), UniProt Q8JXF6 24-450)
T1 sequence: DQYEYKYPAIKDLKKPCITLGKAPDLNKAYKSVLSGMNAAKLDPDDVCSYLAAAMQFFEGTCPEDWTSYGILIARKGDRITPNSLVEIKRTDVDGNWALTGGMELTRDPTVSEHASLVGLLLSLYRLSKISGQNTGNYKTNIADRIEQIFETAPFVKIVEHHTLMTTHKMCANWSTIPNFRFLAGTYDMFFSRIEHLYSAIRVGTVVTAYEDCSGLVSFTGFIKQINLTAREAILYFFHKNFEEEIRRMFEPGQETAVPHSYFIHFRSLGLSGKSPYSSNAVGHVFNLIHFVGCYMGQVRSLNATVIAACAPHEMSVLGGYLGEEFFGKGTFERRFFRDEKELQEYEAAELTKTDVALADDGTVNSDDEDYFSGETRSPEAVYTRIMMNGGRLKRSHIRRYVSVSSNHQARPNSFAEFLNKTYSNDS
Experiment: SEC-MALLS
Conditions: both partners purified
pKd: −log10 of the molar value.
resultType: pKd

// query Consider the binder RABV phosphoprotein residues 1-68 with C-terminal His6 (P68−His6) (peptide) MSKIFVNPSAIRAGLADLEMAEETVDLINRNIEDNQAHLQGEPIEVDNLPEDMKRLHLDDEKSSNLGE and give its measured pKd.
// result > 6.00
